Collected ADCC (donor 2153#) EC50(nM), BxPC-3 + PBMC, LDH release values appear next to each entry.
Biological target: T1, human Trop2 on cells (human, UniProt P09758 27-323)
T1 sequence (looked up): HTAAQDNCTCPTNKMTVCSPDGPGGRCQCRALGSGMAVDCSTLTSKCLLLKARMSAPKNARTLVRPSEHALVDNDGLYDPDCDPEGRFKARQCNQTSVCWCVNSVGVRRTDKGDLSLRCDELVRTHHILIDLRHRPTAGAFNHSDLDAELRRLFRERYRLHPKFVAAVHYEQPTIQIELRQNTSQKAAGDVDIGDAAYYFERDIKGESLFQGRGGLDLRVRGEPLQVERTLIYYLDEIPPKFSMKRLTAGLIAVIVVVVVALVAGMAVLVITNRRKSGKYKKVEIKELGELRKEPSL
Assay: cell-based or functional assay
MEASURE_NAME: ADCC (donor 2153#) EC50(nM), BxPC-3 + PBMC, LDH release

BINDER | MEASUREMENT
comparative example 2 antibody Tab (hRS7) (antibody, human IgG1, kappa, V domains shown, prepared on the basis of sacituzumab govitecan (ChemPartner, #T07-001); naked antibody) VH: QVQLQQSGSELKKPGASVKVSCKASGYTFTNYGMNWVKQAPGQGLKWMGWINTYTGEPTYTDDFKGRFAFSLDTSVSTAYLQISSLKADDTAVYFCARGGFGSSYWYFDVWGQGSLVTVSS VL: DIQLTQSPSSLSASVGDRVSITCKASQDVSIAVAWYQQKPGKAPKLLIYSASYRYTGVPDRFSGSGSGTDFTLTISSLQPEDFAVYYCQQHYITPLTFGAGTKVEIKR | 0.08
PR001165 (antibody, human IgG1, kappa, V domains shown, fully human IgG1/kappa; also called antibody No. (26)) VH: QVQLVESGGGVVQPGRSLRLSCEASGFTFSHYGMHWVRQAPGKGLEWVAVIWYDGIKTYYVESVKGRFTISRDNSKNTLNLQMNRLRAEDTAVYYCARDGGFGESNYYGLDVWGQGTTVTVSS VL: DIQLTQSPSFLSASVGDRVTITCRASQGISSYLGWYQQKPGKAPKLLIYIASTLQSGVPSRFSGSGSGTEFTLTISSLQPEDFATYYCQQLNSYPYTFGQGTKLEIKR | 0.0616
PR001142 (antibody, human IgG1, kappa, V domains shown, fully human IgG1/kappa; also called antibody No. (9)) VH: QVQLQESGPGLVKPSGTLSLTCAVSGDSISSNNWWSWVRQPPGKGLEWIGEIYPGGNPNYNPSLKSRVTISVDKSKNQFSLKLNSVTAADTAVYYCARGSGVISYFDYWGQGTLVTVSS VL: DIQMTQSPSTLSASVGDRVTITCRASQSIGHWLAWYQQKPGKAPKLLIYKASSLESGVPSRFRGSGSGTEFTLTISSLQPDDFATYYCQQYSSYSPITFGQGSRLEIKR | 0.0547
PR001166 (antibody, human IgG1, kappa, V domains shown, fully human IgG1/kappa; also called antibody No. (27)) VH: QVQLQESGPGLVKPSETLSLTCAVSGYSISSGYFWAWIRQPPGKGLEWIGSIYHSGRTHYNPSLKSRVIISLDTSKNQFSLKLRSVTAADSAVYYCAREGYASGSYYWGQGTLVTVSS VL: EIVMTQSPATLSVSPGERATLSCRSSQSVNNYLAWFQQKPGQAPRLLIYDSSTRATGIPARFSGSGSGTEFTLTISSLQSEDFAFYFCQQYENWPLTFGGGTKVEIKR | 0.0347
